Provide the recorded pIC50 for the entries that follow.
ASSAY METHOD TEXT: Inhibition of mTOR2 in human A2058 cells assessed as reduction in PKB/Akt phosphorylation at Ser473 incubated for 1 hr by Western blot analysis
Assay type: cell-based
REPORTED CONDITIONS: A2058, 1 h
Scale: negative log10 of molar concentration, which is what pIC50 denotes.

Form: compound = `C[C@@H]1COCCN1c1nc(-c2cnc(N)cc2C(F)F)nc(N2C3COCC2C3)n1` ; pIC50 = 5.81

Form: compound = `C[C@@H]1COCCN1c1nc(-c2cnc(N)cc2C(F)F)nc(N2CCOCC23CCC3)n1` ; pIC50 = 6.57

Form: compound = `C[C@@H]1COCCN1c1nc(-c2cnc(N)cc2C(F)F)nc(N2CCOC[C@H]2C)n1` ; pIC50 = 6.36

Form: compound = `C[C@@H]1COCCN1c1nc(-c2cnc(N)cc2C(F)F)nc(N2CCOC[C@@H]2CO)n1` ; pIC50 = 6.28

Form: compound = `C[C@@H]1COCCN1c1nc(-c2cnc(N)cc2C(F)F)nc(N2CCOC[C@@H]2C)n1` ; pIC50 = 6.76

Form: compound = `C[C@@H]1COCCN1c1nc(-c2cnc(N)cc2C(F)F)nc(N2[C@H](C)COC[C@@H]2C)n1` ; pIC50 = 7.02

Form: compound = `C[C@@H]1COCCN1c1nc(-c2cnc(N)cc2C(F)F)nc(N2CCOC[C@H]2CO)n1` ; pIC50 = 5.83

Form: compound = `C[C@@H]1COCCN1c1nc(-c2cnc(N)cc2C(F)F)nc(N2CCOCC2(C)C)n1` ; pIC50 = 6.72

Form: compound = `C[C@@H]1CN(c2nc(-c3cnc(N)cc3C(F)F)nc(N3CCOC[C@H]3C)n2)C[C@H](C)O1` ; pIC50 = 5.87

* * *

ASSAY METHOD TEXT: Intrinsic clearance in human hepatocytes assessed per million cells at 5 uM incubated for 3 hrs by LC-MS analysis
Type: ADME, cell-based, Hepatocyte
REPORTED CONDITIONS: read-out: CLH
MEASUREMENT NAME: hepatocyte CLint at 5 µM (µL/min/1e6 cells)
Supply the numeric figure in µL/min/1e6 cells, leaving out any unit text.

Form: compound = `C[C@@H]1COCCN1c1nc(-c2cnc(N)cc2C(F)F)nc(N2[C@H](C)COC[C@@H]2C)n1` ; hepatocyte CLint at 5 µM = 5.3

* * *

Provide the recorded half-life for the entries that follow.
ASSAY METHOD TEXT: Elimination half life in C57BL/6J mouse brain at 10 mg/kg, po administered once a day for 4 consecutive days by mass spectrometry based UHPLC analysis
Format: ADME, organism-based
REPORTED CONDITIONS: time 4 day, read-out: beta t1/2 (converted)
Supply the numeric figure in h, leaving out any unit text.

Form: compound = `CO[C@H]1C[C@@H]2CC[C@@H](C)[C@@](O)(O2)C(=O)C(=O)N2CCCC[C@H]2C(=O)O[C@H]([C@H](C)C[C@@H]2CC[C@@H](OCCO)[C@H](OC)C2)CC(=O)[C@H](C)/C=C(\C)[C@@H](O)[C@@H](OC)C(=O)[C@H](C)C[C@H](C)/C=C/C=C/C=C/1C` ; half-life = 15.8

Form: compound = `C[C@@H]1COCCN1c1nc(-c2cnc(N)cc2C(F)F)nc(N2[C@H](C)COC[C@@H]2C)n1` ; half-life = 2.3
